B1: tRNA (parent)
chain: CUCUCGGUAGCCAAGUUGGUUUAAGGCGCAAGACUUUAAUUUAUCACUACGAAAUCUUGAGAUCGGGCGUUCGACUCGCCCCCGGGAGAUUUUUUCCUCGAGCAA

variants of: B1; assay: nonsense suppression (GFP-seq) (ratio to wild type); higher = more function; SUP4oc tRNA, yeast GFP reporter sort-seq
This sample holds only a part of the variants without activity.
Entries and their nonsense suppression
Readout label: nonsense suppression

• C3G G15C U58G G88C = 0.344
• U20C G85A = 0.861
• C3G A54C = 0.0677
• U4C U17C = 1.04
• U22A U55C = 0.377
• A24U A62G = 0.0414
• G7A A60G = 0.053
• U2G A87U = 0.655
• U4A = 0.693
• A24U U55C = 0.104
• C12U G85U = 0.0919
• C75U = 0.972
• A31G C83U = 0.0743
• A13U A24G G61C = 0.0375
• U20C A87U = 0.0273
• U58C A60C = 0.0568
• G66A G73A = 0.182
• G15A U20G = 0.189
• U58G G85A = 0.0573
• G28A = 0.975
• U21A U76C = 1.18
• U17C U21G = 0.801
